tested on: 883617-216-R-J1-PDC complex spheroids, growth, % test/control; experiment: Anticancer human tumor 883617-216-R-J1-PDC patient-derived bladder carcinoma cell line growth inhibition [AhR]; conditions: second compound 1 µM; first compound 0.0316 µM; hits give low values

Compound	Unit Of Measurement	viability, T/C
Nc1ccccc1NC(=O)c1ccc(CNC(=O)OCc2cccnc2)cc1 + Cc1cncc(-c2nc(NCCc3c[nH]c4ccccc34)c3ncn(C(C)C)c3n2)c1	%	96.6
Nc1ccccc1NC(=O)c1ccc(CNC(=O)OCc2cccnc2)cc1 + CC(CO)NC(=O)c1cc(-c2ccc(Cl)cc2)nn(-c2cnn(C)c2)c1=O	%	92.8
Cn1ncnc1C1c2n[nH]c(=O)c3cc(F)cc(c23)NC1c1ccc(F)cc1 (configuration not stated) + Cc1cncc(-c2nc(NCCc3c[nH]c4ccccc34)c3ncn(C(C)C)c3n2)c1	%	82.7
NS(=O)(=O)OCC1CC(n2ccc3c(NC4CCc5ccccc54)ncnc32)CC1O (configuration not stated) + Cc1ccccc1N=Nc1ccc(NC(=O)c2ccnn2C)c(C)c1	%	127
CC1COCCN1c1cc(C2(S(C)(=N)=O)CC2)nc(-c2ccnc3[nH]ccc23)n1 (configuration not stated) + Cc1ccccc1N=Nc1ccc(NC(=O)c2ccnn2C)c(C)c1	%	87.7
COc1ccc([C@@H](O)c2cc(-c3ncnc4cc(N5CCOCC5)ccc34)c(F)cc2Cl)nn1 + Cc1ccccc1N=Nc1ccc(NC(=O)c2ccnn2C)c(C)c1	%	91.1
O=C(c1cc(Cc2n[nH]c(=O)c3ccccc23)ccc1F)N1CCN(C(=O)C2CC2)CC1 + Cc1ccccc1N=Nc1ccc(NC(=O)c2ccnn2C)c(C)c1	%	89
CC1COCCN1c1cc(C2(S(C)(=N)=O)CC2)nc(-c2ccnc3[nH]ccc23)n1 (configuration not stated) + Cc1cncc(-c2nc(NCCc3c[nH]c4ccccc34)c3ncn(C(C)C)c3n2)c1	%	95.8
COc1cccc2c1C(=O)c1c(O)c3c(c(O)c1C2=O)CC(O)(C(=O)CO)CC3OC1CC(N)C(O)C(C)O1 (configuration not stated) + Cc1cncc(-c2nc(NCCc3c[nH]c4ccccc34)c3ncn(C(C)C)c3n2)c1	%	81.8
Nc1ncn(C2CC(O)C(CO)O2)c(=O)n1 (configuration not stated) + Cc1cncc(-c2nc(NCCc3c[nH]c4ccccc34)c3ncn(C(C)C)c3n2)c1	%	84.8
CC1(C)CCC(CN2CCN(c3ccc(C(=O)NS(=O)(=O)c4ccc(NCC5CCOCC5)c([N+](=O)[O-])c4)c(Oc4cnc5[nH]ccc5c4)c3)CC2)=C(c2ccc(Cl)cc2)C1 + Cc1cncc(-c2nc(NCCc3c[nH]c4ccccc34)c3ncn(C(C)C)c3n2)c1	%	86.5
CC[C@@]1(O)C(=O)OCc2c1cc1n(c2=O)Cc2cc3c(CN(C)C)c(O)ccc3nc2-1 + CC(CO)NC(=O)c1cc(-c2ccc(Cl)cc2)nn(-c2cnn(C)c2)c1=O	%	62

----------
tested on: 883617-216-R-J1-PDC complex spheroids, growth, % test/control; assay: Anticancer human tumor 883617-216-R-J1-PDC cell line growth inhibition [AhR]; settings: second compound 1 µM; first compound 0.0316 µM; hits give low values;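 also: exposure lasted 7 days after dosing on day 3 of spheroid growth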
Listed here are compounds together with their documented viability, T/C.
Metric: viability, T/C (%)

Compound	Target Or Test System	Metric	Reported Value
COc1cc(C2c3cc4c(cc3C(OC3OC5COC(C)OC5C(O)C3O)C3COC(=O)C23)OCO4)cc(OC)c1O (stereo not drawn) + Cc1ccccc1N=Nc1ccc(NC(=O)c2ccnn2C)c(C)c1	883617-216-R-J1-PDC complex spheroids, growth, % test/control	viability, T/C	80.7
COc1ccc([C@@H](O)c2cc(-c3ncnc4cc(N5CCOCC5)ccc34)c(F)cc2Cl)nn1 + CC(CO)NC(=O)c1cc(-c2ccc(Cl)cc2)nn(-c2cnn(C)c2)c1=O	883617-216-R-J1-PDC complex spheroids, growth, % test/control	viability, T/C	86.4
Cn1ncnc1C1c2n[nH]c(=O)c3cc(F)cc(c23)NC1c1ccc(F)cc1 (stereo not drawn) + Cc1ccccc1N=Nc1ccc(NC(=O)c2ccnn2C)c(C)c1	883617-216-R-J1-PDC complex spheroids, growth, % test/control	viability, T/C	81
